Assay Target: Gal4DBD/AaEcR (DEF) (Aedes aegypti, UniProt P49880)
Construct: The wildtype D, E, and F domains from mosquito Aedes aegypti EcR; expressed in transfected cells; host or cells: 3T3 cells
Sequence (P28704 286-520 A311G/G315S/G445S/I449V): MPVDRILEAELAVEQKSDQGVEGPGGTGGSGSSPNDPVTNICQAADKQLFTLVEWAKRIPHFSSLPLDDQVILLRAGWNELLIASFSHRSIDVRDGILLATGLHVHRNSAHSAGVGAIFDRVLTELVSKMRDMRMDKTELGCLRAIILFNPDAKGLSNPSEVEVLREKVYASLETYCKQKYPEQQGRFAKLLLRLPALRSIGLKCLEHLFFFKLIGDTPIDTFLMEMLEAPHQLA
Sequence (P49880 405-776): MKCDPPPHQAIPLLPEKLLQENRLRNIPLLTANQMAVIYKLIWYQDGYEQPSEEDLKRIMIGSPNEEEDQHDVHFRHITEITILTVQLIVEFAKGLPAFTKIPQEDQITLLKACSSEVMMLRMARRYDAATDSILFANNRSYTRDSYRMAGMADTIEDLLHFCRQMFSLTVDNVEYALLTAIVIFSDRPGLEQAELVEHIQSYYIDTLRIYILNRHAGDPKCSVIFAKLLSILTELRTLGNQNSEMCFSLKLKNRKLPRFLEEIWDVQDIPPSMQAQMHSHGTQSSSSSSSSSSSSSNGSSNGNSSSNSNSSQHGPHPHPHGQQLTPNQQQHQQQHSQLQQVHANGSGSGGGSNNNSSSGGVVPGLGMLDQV
Experiment: cell-based
Format: cell-based
Run Conditions: 33 μM; 3T3 cells; 48 h; average of two wells
Metric: Fold Induction Average, AA_3T3V1 Assay 33 μM (fold)
Provide the reading as a plain figure in fold.

Query: Please look up its Fold Induction Average, AA_3T3V1 Assay 33 μM: CC(=O)N(c1ccccc1)C1CC(C)N(C(=O)c2ccc(C(C)(C)C)cc2)c2ccccc21 (stereo not drawn)
Response: 1

Query: Please look up its Fold Induction Average, AA_3T3V1 Assay 33 μM: Cc1ccc(C(=O)N2c3ccccc3C(Nc3ccccc3)CC2C)cc1 (stereo not drawn) [Compound I-96]
Response: 121

Query: Please look up its Fold Induction Average, AA_3T3V1 Assay 33 μM: Cc1cc(C(=O)N2c3ccc(F)cc3[C@@H](Nc3ccc(F)cc3)C[C@@H]2C)ccc1F (relative stereo)
Response: 189

Query: Please look up its Fold Induction Average, AA_3T3V1 Assay 33 μM: Cc1cccc(NC(=O)N2c3ccccc3C(Nc3ccccc3)CC2C)c1 (stereo not drawn)
Response: 1052

Query: Please look up its Fold Induction Average, AA_3T3V1 Assay 33 μM: CC1CC(Nc2ccccc2)c2ccccc2N1C(=O)c1ccc(NS(C)(=O)=O)cc1 (stereo not drawn)
Response: 1

Query: Please look up its Fold Induction Average, AA_3T3V1 Assay 33 μM: CCCCCc1ccc(C(=O)N2c3ccccc3C(Nc3ccccc3)CC2C)cc1 (stereo not drawn)
Response: 5

Query: Please look up its Fold Induction Average, AA_3T3V1 Assay 33 μM: CC1CC(Nc2ccccc2)c2ccccc2N1C(=O)Cc1ccccc1 (stereo not drawn)
Response: 1

Query: Please look up its Fold Induction Average, AA_3T3V1 Assay 33 μM: COc1cccc(C(=O)N2c3ccc(C)cc3[C@@H](Nc3ccc(C)cc3)C[C@@H]2C)c1 (relative stereo)
Response: 2

Query: Please look up its Fold Induction Average, AA_3T3V1 Assay 33 μM: CC1CC(Nc2ccccc2)c2ccccc2N1C(=O)Nc1cccc(Cl)c1 (stereo not drawn)
Response: 527
